Biological target: UniProt:P42684
Sequence (P42684 whole entry, looked up): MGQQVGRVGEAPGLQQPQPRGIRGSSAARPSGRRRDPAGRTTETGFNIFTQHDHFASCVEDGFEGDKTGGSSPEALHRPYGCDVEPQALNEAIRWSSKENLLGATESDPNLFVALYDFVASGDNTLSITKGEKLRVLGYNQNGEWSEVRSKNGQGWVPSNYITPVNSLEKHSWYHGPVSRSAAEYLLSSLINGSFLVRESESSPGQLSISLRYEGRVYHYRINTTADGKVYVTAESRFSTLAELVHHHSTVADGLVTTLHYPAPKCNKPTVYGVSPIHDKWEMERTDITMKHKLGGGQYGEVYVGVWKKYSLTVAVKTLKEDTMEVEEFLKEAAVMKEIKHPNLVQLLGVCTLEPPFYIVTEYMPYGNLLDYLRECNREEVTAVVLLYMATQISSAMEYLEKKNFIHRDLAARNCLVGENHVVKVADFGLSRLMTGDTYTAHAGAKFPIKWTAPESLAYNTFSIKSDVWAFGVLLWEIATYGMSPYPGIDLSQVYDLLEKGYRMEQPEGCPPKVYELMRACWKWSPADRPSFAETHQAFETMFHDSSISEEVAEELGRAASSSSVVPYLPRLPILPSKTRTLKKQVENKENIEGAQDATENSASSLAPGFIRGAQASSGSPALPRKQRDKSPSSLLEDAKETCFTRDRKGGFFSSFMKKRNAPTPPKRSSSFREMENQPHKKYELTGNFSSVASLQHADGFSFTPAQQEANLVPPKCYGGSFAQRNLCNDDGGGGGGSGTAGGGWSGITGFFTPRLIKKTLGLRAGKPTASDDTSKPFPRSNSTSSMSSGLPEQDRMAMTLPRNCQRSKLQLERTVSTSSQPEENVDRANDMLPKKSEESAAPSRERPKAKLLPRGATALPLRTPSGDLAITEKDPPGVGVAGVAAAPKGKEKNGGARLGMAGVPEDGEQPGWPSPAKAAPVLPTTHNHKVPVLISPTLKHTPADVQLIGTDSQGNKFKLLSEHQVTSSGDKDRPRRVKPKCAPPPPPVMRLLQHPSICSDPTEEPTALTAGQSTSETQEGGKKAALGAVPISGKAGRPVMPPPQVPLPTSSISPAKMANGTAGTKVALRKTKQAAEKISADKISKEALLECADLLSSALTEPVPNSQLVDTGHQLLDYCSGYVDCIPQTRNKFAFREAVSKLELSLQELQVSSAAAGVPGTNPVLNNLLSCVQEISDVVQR
Assay: radiometric filter-binding kinase assay, Kinase HotSpot
Details: compound 0.5 µM; ATP 10 µM
Listed molecules paired with reported residual activity
quantity kind: residual activity

In [3]: df
Out[3]:
                                    molecule      quantity_kind  result
 0           CCN1/C(=C/C(C)=O)Sc2ccc(OC)cc21  residual activity   96.1%
 1  Nc1n[nH]c2nnc(-c3c(-c4ccccc4)nn4ccccc34)cc12  residual activity   57.5%
 2  Oc1ccc(-c2nc(-c3ccc(F)cc3)c(-c3ccncc3)[nH]2)cc1  residual activity   91.1%
 3      COc1ccc(-c2cnc3c(-c4ccsc4)cnn3c2)cc1  residual activity   63.4%
 4      O=C(Nc1ccc(Cl)cc1)c1ccccc1NCc1ccncc1  residual activity   93.4%
 5     O=c1cc(N2CCNCC2)oc2c(-c3ccccc3)cccc12  residual activity   99.5%
 6               Cc1cc2ncc(-c3ccccc3)nc2cc1C  residual activity    103%
 7  CSc1nc(-c2ccc(F)cc2)c(-c2ccnc(NC(C)c3ccccc3)c2)[nH]1 (stereo unspecified)  residual activity   95.7%
 8  COc1cc2nccc(Oc3ccc(NC(=S)NC(=O)c4ccccc4C)cc3)c2cc1OC  residual activity   74.1%
 9  O=C(NC(NC(=S)Nc1ccc(F)c([N+](=O)[O-])c1)C(Cl)(Cl)Cl)C(c1ccccc1)c1ccccc1 (stereo unspecified)  residual activity    105%
10  NC(=O)c1ccc(N(C(N)=O)c2c(F)cccc2F)nc1-c1ccc(F)cc1F  residual activity    100%

----------
Biological target: MAP2K1 (human) (UniProt Q02750)
Sequence (Q02750 whole entry, looked up): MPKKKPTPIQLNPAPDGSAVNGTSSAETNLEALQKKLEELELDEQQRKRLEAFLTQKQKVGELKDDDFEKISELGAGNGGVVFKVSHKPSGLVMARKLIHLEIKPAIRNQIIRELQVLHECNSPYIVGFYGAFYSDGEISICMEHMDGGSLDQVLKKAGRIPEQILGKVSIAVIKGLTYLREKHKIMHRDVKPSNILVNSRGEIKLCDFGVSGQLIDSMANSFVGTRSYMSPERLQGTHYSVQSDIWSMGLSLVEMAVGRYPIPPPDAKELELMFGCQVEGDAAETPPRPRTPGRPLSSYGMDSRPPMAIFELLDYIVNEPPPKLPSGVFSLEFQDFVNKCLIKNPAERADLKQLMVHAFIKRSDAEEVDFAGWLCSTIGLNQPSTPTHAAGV
Experiment: radiometric filter-binding kinase assay, Kinase HotSpot
Conditions: compound 0.5 µM; ATP 10 µM
Listed compounds paired with reported residual activity
quantity kind: residual activity (%)

>>> print(df.to_string())
                                   compound      quantity_kind  readout_number
0  CS(=O)c1ccc(-c2nc(-c3ccc(F)cc3)c(-c3ccncc3)[nH]2)cc1 (stereo not given)  residual activity            94.8
1  COc1cc2ncnc(Nc3ccc(F)c(Cl)c3)c2cc1OCCCN1CCOCC1  residual activity             107
2  O=C(NC(NC(=S)Nc1ccc(F)c([N+](=O)[O-])c1)C(Cl)(Cl)Cl)C(c1ccccc1)c1ccccc1 (stereo not given)  residual activity            95.1
3  Cc1ccc(NC(=O)c2ccc(CN3CCN(C)CC3)cc2)cc1Nc1nc(-c2cccnc2)cs1  residual activity             111
4   O=C1Nc2ccccc2/C1=C\c1c(Cl)[nH]c2ccccc12  residual activity            84.8
5      O=C(Nc1ccc(Cl)cc1)c1ccccc1NCc1ccncc1  residual activity            96.8
6    Clc1ccc(Nc2nnc(Cc3ccncc3)c3ccccc23)cc1  residual activity             100
7  O=C1Nc2cc(Br)ccc2/C1=C1/Nc2ccccc2/C1=N\O  residual activity             103
8  Nc1nc(Nc2ccc(S(N)(=O)=O)cc2)nn1C(=S)Nc1c(F)cccc1F  residual activity            94.6
9  C#Cc1cccc(Nc2ncnc3cc(OCCOC)c(OCCOC)cc23)c1  residual activity             105

----------
Target: AKT3 (human)
Assay: radiometric filter-binding kinase assay, Kinase HotSpot
Settings: compound 0.5 µM; ATP 10 µM
Listed compounds paired with reported residual activity
quantity kind: residual activity (%)

>>> df
                                   compound  readout_number
0      COc1ccc(-c2cnc3c(-c4ccsc4)cnn3c2)cc1            95.4
1  CSc1nc(-c2ccc(F)cc2)c(-c2ccnc(NC(C)c3ccccc3)c2)[nH]1 (stereo not given)            91.5
2  CCCNC(=O)Nc1ccc(Oc2ncnc3cc(OC)c(OC)cc23)cc1Cl            88.9
3  O=C1Cc2c([nH]c3ccc([N+](=O)[O-])cc23)-c2ccccc2N1            94.1
4  Oc1ccc(-c2nc(-c3ccc(F)cc3)c(-c3ccncc3)[nH]2)cc1            98.4
5   CC(C)n1cnc2c(Nc3cccc(Cl)c3)nc(NCCO)nc21            99.9
6  C#Cc1cccc(Nc2ncnc3cc(OCCOC)c(OCCOC)cc23)c1            74.6
7      O=C(Nc1ccc(Cl)cc1)c1ccccc1NCc1ccncc1            97.9
8  O=C(NC(NC(=S)Nc1ccc(F)c([N+](=O)[O-])c1)C(Cl)(Cl)Cl)C(c1ccccc1)c1ccccc1 (stereo not given)             106
9  O=C1Nc2cc(Br)ccc2/C1=C1/Nc2ccccc2/C1=N\O            89.4

----------
Listed compounds paired with reported residual activity
Target: PIM1 (human) (UniProt P11309)
Sequence (P11309 whole entry, looked up): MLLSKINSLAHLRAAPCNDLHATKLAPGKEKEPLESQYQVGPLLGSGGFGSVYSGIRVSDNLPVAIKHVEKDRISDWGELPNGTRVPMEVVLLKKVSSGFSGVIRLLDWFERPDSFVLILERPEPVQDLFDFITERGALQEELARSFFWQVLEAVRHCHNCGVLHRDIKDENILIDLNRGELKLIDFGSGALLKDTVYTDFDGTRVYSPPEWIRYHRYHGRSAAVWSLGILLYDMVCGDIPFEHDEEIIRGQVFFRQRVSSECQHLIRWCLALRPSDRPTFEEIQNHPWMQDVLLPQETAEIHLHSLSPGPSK
Assay: radiometric filter-binding kinase assay, Kinase HotSpot
Details: compound 0.5 µM; ATP 10 µM
quantity kind: residual activity (%)

>>> print(df.to_string())
                                   compound      quantity_kind  display_unit  readout_number
0  Nc1n[nH]c2nnc(-c3c(-c4ccccc4)nn4ccccc34)cc12  residual activity             %             100
1  CC(C)(C)c1nc2c3ccc(F)cc3c3c(=O)[nH]ccc3c2[nH]1  residual activity             %            38.6
2  O=C(NC(NC(=S)Nc1ccc(F)c([N+](=O)[O-])c1)C(Cl)(Cl)Cl)C(c1ccccc1)c1ccccc1 (centres undefined)  residual activity             %             101
3  CC(C)[C@H](CO)Nc1nc(Nc2cccc(Cl)c2)c2ncn(C(C)C)c2n1  residual activity             %             104

----------
Molecular target: EPHA2 (human)
Assay: radiometric filter-binding kinase assay, Kinase HotSpot
Conditions: compound 0.5 µM; ATP 10 µM
quantity kind: residual activity (%)

>>> print(df.to_string())
                                   compound  readout_number
0  O=c1cc(-c2cccc3c2Sc2ccccc2S3)oc(N2CCOCC2)c1            96.2
1           CCN1/C(=C/C(C)=O)Sc2ccc(OC)cc21            99.1
2  CS(=O)c1ccc(-c2nc(-c3ccc(F)cc3)c(-c3ccncc3)[nH]2)cc1 (stereo unspecified)            94.8
3  CC(C)[C@H](CO)Nc1nc(Nc2cccc(Cl)c2)c2ncn(C(C)C)c2n1            89.5
4  CC(C)(C)c1nc2c3ccc(F)cc3c3c(=O)[nH]ccc3c2[nH]1            98.5
5      O=C(Nc1ccc(Cl)cc1)c1ccccc1NCc1ccncc1             101

----------
Target: UniProt:Q5S007
Sequence (Q5S007 whole entry, looked up): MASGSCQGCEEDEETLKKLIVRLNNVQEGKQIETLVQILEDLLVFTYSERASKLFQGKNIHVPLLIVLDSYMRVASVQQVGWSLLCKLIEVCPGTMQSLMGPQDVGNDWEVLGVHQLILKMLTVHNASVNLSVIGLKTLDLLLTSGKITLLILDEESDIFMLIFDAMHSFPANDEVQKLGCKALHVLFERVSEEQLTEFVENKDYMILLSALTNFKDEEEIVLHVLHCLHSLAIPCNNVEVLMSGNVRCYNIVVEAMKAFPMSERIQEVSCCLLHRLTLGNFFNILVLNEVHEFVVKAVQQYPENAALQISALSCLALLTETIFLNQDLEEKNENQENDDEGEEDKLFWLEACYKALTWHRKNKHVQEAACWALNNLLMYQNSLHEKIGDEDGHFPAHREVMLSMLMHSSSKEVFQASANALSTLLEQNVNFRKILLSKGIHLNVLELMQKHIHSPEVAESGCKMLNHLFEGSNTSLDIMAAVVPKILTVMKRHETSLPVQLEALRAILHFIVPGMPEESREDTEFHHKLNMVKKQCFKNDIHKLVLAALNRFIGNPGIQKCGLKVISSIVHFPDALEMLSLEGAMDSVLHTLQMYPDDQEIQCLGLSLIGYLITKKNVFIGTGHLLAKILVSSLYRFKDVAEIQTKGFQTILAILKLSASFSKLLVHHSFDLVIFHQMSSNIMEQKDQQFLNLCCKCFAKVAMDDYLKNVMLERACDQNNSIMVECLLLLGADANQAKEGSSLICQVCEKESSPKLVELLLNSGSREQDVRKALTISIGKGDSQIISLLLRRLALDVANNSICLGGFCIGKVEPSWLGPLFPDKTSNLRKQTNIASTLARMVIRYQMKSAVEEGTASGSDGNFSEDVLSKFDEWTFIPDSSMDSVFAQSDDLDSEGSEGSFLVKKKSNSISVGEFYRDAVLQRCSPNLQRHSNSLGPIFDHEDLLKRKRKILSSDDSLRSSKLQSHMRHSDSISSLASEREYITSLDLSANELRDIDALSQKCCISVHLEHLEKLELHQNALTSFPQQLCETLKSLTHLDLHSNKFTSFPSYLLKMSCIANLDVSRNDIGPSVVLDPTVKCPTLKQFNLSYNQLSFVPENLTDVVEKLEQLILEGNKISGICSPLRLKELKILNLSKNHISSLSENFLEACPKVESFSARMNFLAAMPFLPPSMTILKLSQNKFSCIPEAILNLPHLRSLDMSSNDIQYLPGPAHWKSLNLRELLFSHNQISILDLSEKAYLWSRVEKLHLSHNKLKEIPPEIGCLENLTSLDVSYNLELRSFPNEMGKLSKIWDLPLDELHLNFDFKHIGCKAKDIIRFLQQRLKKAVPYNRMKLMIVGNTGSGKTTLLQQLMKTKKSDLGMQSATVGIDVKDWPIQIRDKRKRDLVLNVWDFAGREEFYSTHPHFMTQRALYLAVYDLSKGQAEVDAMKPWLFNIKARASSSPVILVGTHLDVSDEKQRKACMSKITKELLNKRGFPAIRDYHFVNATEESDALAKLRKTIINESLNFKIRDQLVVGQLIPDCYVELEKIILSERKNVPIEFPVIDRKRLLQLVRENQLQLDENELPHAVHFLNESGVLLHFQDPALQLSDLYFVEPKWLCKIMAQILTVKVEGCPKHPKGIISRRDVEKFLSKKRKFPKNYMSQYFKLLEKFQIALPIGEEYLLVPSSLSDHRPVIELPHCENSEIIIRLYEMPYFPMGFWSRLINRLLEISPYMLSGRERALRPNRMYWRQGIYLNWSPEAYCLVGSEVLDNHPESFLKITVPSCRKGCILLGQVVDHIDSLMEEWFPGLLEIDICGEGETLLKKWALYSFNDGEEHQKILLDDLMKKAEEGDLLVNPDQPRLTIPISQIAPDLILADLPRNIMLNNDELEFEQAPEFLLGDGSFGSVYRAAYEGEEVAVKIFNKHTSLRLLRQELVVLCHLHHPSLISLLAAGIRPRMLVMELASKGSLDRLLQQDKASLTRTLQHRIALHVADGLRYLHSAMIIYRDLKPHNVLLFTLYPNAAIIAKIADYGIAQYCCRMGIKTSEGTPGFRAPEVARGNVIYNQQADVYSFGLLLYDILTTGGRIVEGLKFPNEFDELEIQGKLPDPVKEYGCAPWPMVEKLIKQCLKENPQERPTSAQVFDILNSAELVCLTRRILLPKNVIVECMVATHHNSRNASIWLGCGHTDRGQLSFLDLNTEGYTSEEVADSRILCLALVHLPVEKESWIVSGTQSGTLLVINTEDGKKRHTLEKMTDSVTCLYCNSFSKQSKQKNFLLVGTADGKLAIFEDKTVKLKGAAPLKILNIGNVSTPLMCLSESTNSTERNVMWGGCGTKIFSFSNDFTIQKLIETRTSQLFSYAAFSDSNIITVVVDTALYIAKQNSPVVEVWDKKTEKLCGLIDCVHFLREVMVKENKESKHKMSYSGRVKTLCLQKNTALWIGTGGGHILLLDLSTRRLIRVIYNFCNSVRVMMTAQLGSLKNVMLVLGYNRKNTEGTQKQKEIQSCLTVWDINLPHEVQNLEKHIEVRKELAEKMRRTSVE
Assay: radiometric filter-binding kinase assay, Kinase HotSpot
Details: compound 0.5 µM; ATP 10 µM
Listed compounds paired with reported residual activity
quantity kind: residual activity

>>> df
                                    compound   target_entity      quantity_kind  result
 0  COc1cc2nccc(Oc3ccc(NC(=S)NC(=O)c4ccccc4C)cc3)c2cc1OC  UniProt:Q5S007  residual activity   94.4%
 1           CCN1/C(=C/C(C)=O)Sc2ccc(OC)cc21  UniProt:Q5S007  residual activity   98.1%
 2  COc1cc2ncnc(Nc3ccc(F)c(Cl)c3)c2cc1OCCCN1CCOCC1  UniProt:Q5S007  residual activity    108%
 3  CCCNC(=O)Nc1ccc(Oc2ncnc3cc(OC)c(OC)cc23)cc1Cl  UniProt:Q5S007  residual activity   94.1%
 4    Clc1ccc(Nc2nnc(Cc3ccncc3)c3ccccc23)cc1  UniProt:Q5S007  residual activity   74.8%
 5  CS(=O)c1ccc(-c2nc(-c3ccc(F)cc3)c(-c3ccncc3)[nH]2)cc1 (configuration not stated)  UniProt:Q5S007  residual activity    100%
 6  O=C(NC(NC(=S)Nc1ccc(F)c([N+](=O)[O-])c1)C(Cl)(Cl)Cl)C(c1ccccc1)c1ccccc1 (configuration not stated)  UniProt:Q5S007  residual activity   99.3%
 7  CSc1nc(-c2ccc(F)cc2)c(-c2ccnc(NC(C)c3ccccc3)c2)[nH]1 (configuration not stated)  UniProt:Q5S007  residual activity    100%
 8      O=C(Nc1ccc(Cl)cc1)c1ccccc1NCc1ccncc1  UniProt:Q5S007  residual activity   98.7%
 9  CC(C)(C)c1nc2c3ccc(F)cc3c3c(=O)[nH]ccc3c2[nH]1  UniProt:Q5S007  residual activity   47.5%
10   O=C1Nc2ccccc2/C1=C\c1c(Cl)[nH]c2ccccc12  UniProt:Q5S007  residual activity    102%
11      COc1ccc(-c2cnc3c(-c4ccsc4)cnn3c2)cc1  UniProt:Q5S007  residual activity   68.1%
12               Cc1cc2ncc(-c3ccccc3)nc2cc1C  UniProt:Q5S007  residual activity   94.4%
13  O=c1cc(-c2cccc3c2Sc2ccccc2S3)oc(N2CCOCC2)c1  UniProt:Q5S007  residual activity    102%
14     O=c1cc(N2CCNCC2)oc2c(-c3ccccc3)cccc12  UniProt:Q5S007  residual activity    101%
15  Oc1ccc(-c2nc(-c3ccc(F)cc3)c(-c3ccncc3)[nH]2)cc1  UniProt:Q5S007  residual activity   95.8%
16  O=C1Nc2cc(Br)ccc2/C1=C1/Nc2ccccc2/C1=N\O  UniProt:Q5S007  residual activity   95.3%
17  Nc1nc(Nc2ccc(S(N)(=O)=O)cc2)nn1C(=O)c1c(F)cccc1F  UniProt:Q5S007  residual activity   48.3%
18  O=C1Cc2c([nH]c3ccc([N+](=O)[O-])cc23)-c2ccccc2N1  UniProt:Q5S007  residual activity   96.5%
19  CC(C)[C@H](CO)Nc1nc(Nc2cccc(Cl)c2)c2ncn(C(C)C)c2n1  UniProt:Q5S007  residual activity   77.7%
20  Nc1nc(Nc2ccc(S(N)(=O)=O)cc2)nn1C(=S)Nc1c(F)cccc1F  UniProt:Q5S007  residual activity   1.33%
21  Nc1n[nH]c2nnc(-c3c(-c4ccccc4)nn4ccccc34)cc12  UniProt:Q5S007  residual activity   91.8%
